The values you see were collected from patent US20240408169A1.

- assayed-target: CyclinB1/CDK1 (Homo sapiens, UniProt P14635)
- Construct: purchased Eurofins, discovery 14-450
- assay: Fluorescence Polarization (FP) competitive binding assay, Cyclin B1/Cdk1;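 note: fluorescence polarization read after equilibration at room temperature, with IC50 taken from serially diluted dose-response curves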
- run-conditions: 10 nM Cyclin B1/Cdk1, 2 nM FAM probe; average of 2-3 independent experiments; read-out: Cyclin B FP IC50
*1 amine or outer side, *2 acyl side, *3 side chain or, on linkers, in order; H or OH if unused. Where a SMILES comes first, the peptide text is derived from it. Bridges are numbered along the chain shown (N, C = ends). [ ]: non-standard residue; d: D form. The star is where a group is joined. NMePhe(2-(4-MorPh),5-Cl) = CN[C@@H](Cc1cc(Cl)ccc1-c1ccc(N2CCOCC2)cc1)C(=O)O; X150 = CC(C)C(=O)N1C2C=C(c3ccc(F)cc3C[C@@H](C(=O)[*:2])N(C)[*:1])CC1CC2; X171 = CC(=O)N1CC=C(c2ncc(Cl)cc2C[C@@H](C(=O)[*:2])N(C)[*:1])CC1; NMehhhLys(Me) = CN([C@@H](CCCCCCCN(C)[*:3])C(=O)[*:2])[*:1]; X22 = CN([C@@H](Cc1cc(Cl)ccc1-c1cnn(C)c1)C(=O)[*:2])[*:1]; X66 = CN([C@@H](Cc1cc(Cl)ccc1-c1cccnc1)C(=O)[*:2])[*:1]; NMe(hhhLys) = CN([C@@H](CCCCCCCN[*:3])C(=O)[*:2])[*:1]; Cyclobutanecarbonyl(1-CF3) = O=C(C1(C(F)(F)F)CCC1)*; cBuCO(3,3-F2-1-CF3) = O=C(C1(C(F)(F)F)CC(F)(F)C1)*; Pro(trans-4-F) = O=C(O)[C@@H]1C[C@@H](F)CN1; Gly(cPr) = N[C@H](C(=O)O)C1CC1; X9 = C[C@@]1(C(=O)*)CC1(F)F
property: IC50 (nM)
Give the value in nM but do not write nM after it.

molecule	measured
CC(=O)N1CC=C(c2ncc(Cl)cc2C[C@H]2C(=O)NCCCCCCC[C@H](N(C)C(=O)[C@@H](NC(=O)[C@@H]3C[C@@H](F)CN3C(=O)C3(C(F)(F)F)CC(F)(F)C3)C3CC3)C(=O)N[C@@H](CC(C)C)C(=O)N2C)CC1 [Example 302] ({cBuCO(3,3-F2-1-CF3)}-[Pro(trans-4-F)][Gly(cPr)][NMe(hhhLys)]L[X171]; lactam 3-C)	20
CC(C)C[C@@H]1NC(=O)[C@@H](N(C)C(=O)[C@@H](NC(=O)[C@@H]2C[C@@H](F)CN2C(=O)C2(C(F)(F)F)CC(F)(F)C2)C2CC2)CCCCCCCN(C)C(=O)[C@H](Cc2cc(Cl)ccc2-c2cccnc2)N(C)C1=O [Example 196] ({cBuCO(3,3-F2-1-CF3)}-[Pro(trans-4-F)][Gly(cPr)][NMehhhLys(Me)]L[X66]; lactam 3-C)	20
CC(C)C[C@@H]1NC(=O)[C@@H](N(C)C(=O)[C@@H](NC(=O)[C@@H]2CCCN2C(=O)C2(C(F)(F)F)CCC2)C2CC2)CCCCCCCN(C)C(=O)[C@H](Cc2cc(Cl)ccc2-c2cnn(C)c2)N(C)C1=O [Example 76] ({Cyclobutanecarbonyl(1-CF3)}-P[Gly(cPr)][NMehhhLys(Me)]L[X22]; lactam 3-C)	20

Q. # query: IC50 of entry CC(C)C[C@@H]1NC(=O)[C@@H](N(C)C(=O)[C@@H](NC(=O)[C@@H]2C[C@@H](F)CN2C(=O)C2(C(F)(F)F)CC(F)(F)C2)C2CC2)CCCCCCCN(C)C(=O)[C@H](Cc2cc(F)ccc2C2=CC3CCC(C2)N3C(=O)C(C)C)N(C)C1=O (stereo partly drawn) [Example 150] ({cBuCO(3,3-F2-1-CF3)}-[Pro(trans-4-F)][Gly(cPr)][NMehhhLys(Me)]L[X150]; lactam 3-C)
A. 20

Q. # query: IC50 of entry CC(C)C[C@@H]1NC(=O)[C@@H](N(C)C(=O)[C@@H](NC(=O)[C@@H]2N[C@@H](F)CC2C(=O)C2(C(F)(F)F)CC(F)(F)C2)C2CC2)CC=CCCCCN(C)C(=O)[C@H](Cc2cc(Cl)cnc2OC(C)C)N(C)C1=O (stereo partly drawn)
A. 20

Q. # query: IC50 of entry CC(C)C[C@@H]1NC(=O)[C@@H](N(C)C(=O)[C@@H](NC(=O)[C@@H]2C[C@@H](F)CN2C(=O)[C@]2(C)CC2(F)F)C2CC2)CCCCCCCN(C)C(=O)[C@H](Cc2cc(Cl)ccc2-c2ccc(N3CCOCC3)cc2)N(C)C1=O [Example 399] (X9-[Pro(trans-4-F)][Gly(cPr)][NMehhhLys(Me)]L[NMePhe(2-(4-MorPh),5-Cl)]; lactam 3-C)
A. 20
